Each recorded value in this set is attributed to patent US20260248972A1.

MEASUREMENT TARGET: CCK2R (Rattus norvegicus, UniProt P30553)
Construct: host or cells: AR42J cells
Sequence (P30553 whole entry): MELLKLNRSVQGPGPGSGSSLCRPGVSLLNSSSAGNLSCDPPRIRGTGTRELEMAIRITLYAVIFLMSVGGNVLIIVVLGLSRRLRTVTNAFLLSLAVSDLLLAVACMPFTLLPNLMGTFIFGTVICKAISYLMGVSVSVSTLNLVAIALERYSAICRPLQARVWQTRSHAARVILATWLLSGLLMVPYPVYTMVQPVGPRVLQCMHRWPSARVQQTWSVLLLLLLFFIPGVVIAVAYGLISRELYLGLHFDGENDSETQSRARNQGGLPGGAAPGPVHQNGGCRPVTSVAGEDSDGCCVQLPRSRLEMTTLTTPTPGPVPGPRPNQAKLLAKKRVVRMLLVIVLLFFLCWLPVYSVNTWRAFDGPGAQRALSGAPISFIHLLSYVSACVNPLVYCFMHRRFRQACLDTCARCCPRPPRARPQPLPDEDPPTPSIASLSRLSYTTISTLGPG
MEASUREMENT NOTES: Competitive cell-binding assay on AR42J cells with 125I-C3 as competitive ligand
Method: AR42J cells (ATCC) were maintained in RPMI-1640 medium (Gibco) supplemented with 15% fetal bovine serum (Gibco) and 1% penicillin-streptomycin (BI) at 37° C. in a humidified incubator with 5% CO2. […] The binding affinities of test compounds were determined by a competitive cell-binding assay using ^125I-C1 and ^125I-C3 as the competitive ligand. […] The filters were collected, and their radioactivity were individually measured by γ counter (2480 WIZARD2, PerkinElmer). […]
RESULT TYPE: Relative Binding Affinity CCK2R
Lab note: record the figure alone, no unit after it.

Note to self: Relative Binding Affinity CCK2R recorded for C[C@@H](O)[C@H](NC(=O)[C@@H]1CSSC[C@H](NC(=O)[C@@H](Cc2ccccc2)NC(=O)[C@H](CCCCNC(=O)c2cccc(NC(=O)N[C@@H]3CN(C4CCCCC4)c4ccccc4N(CC(=O)C(C)(C)C)C3=O)c2)NC(=O)CN2CCN(CC(=O)O)CCN(CC(=O)O)CCN(CC(=O)O)CC2)C(=O)N[C@@H](Cc2ccc(O)cc2)C(=O)N[C@H](Cc2c[nH]c3ccccc23)C(=O)N[C@@H](CCCCN)C(=O)N[C@@H]([C@@H](C)O)C(=O)N1)C(=O)O [Compound I-34, DOTA-K(Z360)-f[CYwKTC]T-OH] was 5.9

Note to self: Relative Binding Affinity CCK2R recorded for C[C@@H](O)[C@H](NC(=O)[C@@H]1CSSC[C@H](NC(=O)[C@@H](Cc2ccccc2)NC(=O)COCCOCCNC(=O)[C@H](CCCCNC(=O)COCCOCCNC(=O)c2cccc(NC(=O)N[C@@H]3CN(C4CCCCC4)c4ccccc4N(CC(=O)C(C)(C)C)C3=O)c2)NC(=O)CN2CCN(CC(=O)O)CCN(CC(=O)O)CCN(CC(=O)O)CC2)C(=O)N[C@@H](Cc2ccc(O)cc2)C(=O)N[C@H](Cc2c[nH]c3ccccc23)C(=O)N[C@@H](CCCCN)C(=O)N[C@@H]([C@@H](C)O)C(=O)N1)C(=O)O [Compound I-43, DOTA-K(-OEG-Z360)-OEG-f[CYwKTC]T-OH] was 4.0

Note to self: Relative Binding Affinity CCK2R recorded for C[C@@H](O)[C@H](NC(=O)[C@@H]1CSSC[C@H](NC(=O)[C@@H](Cc2ccccc2)NC(=O)[C@H](CCCCNC(=O)COCCOCCNC(=O)c2cccc(NC(=O)N[C@@H]3CN(C4CCCCC4)c4ccccc4N(CC(=O)C(C)(C)C)C3=O)c2)NC(=O)CN2CCN(CC(=O)O)CCN(CC(=O)O)CCN(CC(=O)O)CC2)C(=O)N[C@@H](Cc2ccc(O)cc2)C(=O)N[C@H](Cc2c[nH]c3ccccc23)C(=O)N[C@@H](CCCCN)C(=O)N[C@@H]([C@@H](C)O)C(=O)N1)C(=O)O [Compound I-36, DOTA-K(-OEG-Z360)-f[CYwKTC]T-OH] was 4.0

###

Give measured tissue uptake at 72 h for each item. Keep answers brief.
MEASUREMENT NOTES: in vivo
ASSAY CONTEXT: BALB/c nude, mouse, in vivo, iv, total radioactivity, % ID/g Spleen
# number then unit; no other words

Note to self: tissue uptake at 72 h recorded for C[C@@H](O)[C@H](NC(=O)[C@@H]1CSSC[C@H](NC(=O)[C@@H](Cc2ccccc2)NC(=O)[C@H](CCCCNC(=O)COCCOCCNC(=O)c2cccc(NC(=O)N[C@@H]3CN(C4CCCCC4)c4ccccc4N(CC(=O)C(C)(C)C)C3=O)c2)NC(=O)CN2CCN(CC(=O)O)CCN(CC(=O)O)CCN(CC(=O)O)CC2)C(=O)N[C@@H](Cc2ccc(O)cc2)C(=O)N[C@H](Cc2c[nH]c3ccccc23)C(=O)N[C@@H](CCCCN)C(=O)N[C@@H]([C@@H](C)O)C(=O)N1)C(=O)O [^177Lu-I-36, metal not drawn] was 0.36 %ID/g

Note to self: tissue uptake at 72 h recorded for C[C@@H](O)[C@H](NC(=O)[C@@H]1CSSC[C@H](NC(=O)[C@@H](Cc2ccccc2)NC(=O)COCCOCCNC(=O)[C@H](CCCCNC(=O)c2cccc(NC(=O)N[C@@H]3CN(C4CCCCC4)c4ccccc4N(CC(=O)C(C)(C)C)C3=O)c2)NC(=O)CN2CCN(CC(=O)O)CCN(CC(=O)O)CCN(CC(=O)O)CC2)C(=O)N[C@@H](Cc2ccc(O)cc2)C(=O)N[C@H](Cc2c[nH]c3ccccc23)C(=O)N[C@@H](CCCCN)C(=O)N[C@@H]([C@@H](C)O)C(=O)N1)C(=O)O [Compound 177Lu-I-37, metal not drawn] was 0.13 %ID/g
